Measured TGI, listed per entry.
# System: HCC-2998 colon
# assay-summary: NCI tumour cell line growth inhibition, 48 h
observation-type: TGI

INSERT INTO results (compound, target_or_test_system, assay_value) VALUES
  ('O=C1C2=Cc3ccccc3OC2(O)Oc2ccccc21 (stereo not given)', 'HCC-2998 colon', '> 100 µM'),
  ('CC(=O)NC1C(OC(C)C(=O)NC(C(=O)NC(CCC(=O)NCCCNC2c3ccccc3Nc3cccc([N+](=O)[O-])c32)C(N)=O)C(C)C)C(O)C(CO)OC1(C)OCc1ccccc1 (stereo not given)', 'HCC-2998 colon', '2.2 µM'),
  ('CC1(C)CCCC2(C)C3C(O)CC2(C)C(O)C31 (stereo not given)', 'HCC-2998 colon', '> 100 µM'),
  ('N#COc1ccc(Oc2ccccc2)cc1', 'HCC-2998 colon', '> 100 µM'),
  ('N#Cc1ccc(/C=C(/C(=O)c2ccccc2)c2ccccc2)cc1', 'HCC-2998 colon', '30.6 µM'),
  ('C=C1[C@H]2O[C@H]2[C@@H](OC(C)=O)[C@@]2(C)[C@@H](OC(C)=O)C[C@@H](OC(=O)CCC)[C@@](C)(O)[C@@H]2[C@@H](OC(C)=O)[C@]2(O)[C@@H](C)C(=O)O[C@H]2[C@H]1Cl', 'HCC-2998 colon', '> 100 µM'),
  ('O=c1[nH]c2cc([N+](=O)[O-])ccc2nc1/C(=N/Nc1ccccc1)C(O)c1ccco1 (stereo not given)', 'HCC-2998 colon', '> 100 µM'),
  ('C=C1C(=O)OC2C1C(OC(=O)/C(C)=C/C)CC(O)(CCl)C1C(O)C=C(C)C21O (stereo not given)', 'HCC-2998 colon', '25.6 µM'),
  ('CC(=O)OC1OC(c2ccoc2)C[C@@]12C1CCC3O[C@]3(C)[C@]1(C)[C@H](OC(C)=O)[C@H](OC(C)=O)[C@H]2C (stereo not given in full)', 'HCC-2998 colon', '> 37.5 µM'),
  ('COC(=O)CN(CC(O)C(NC(C)=O)C(O)C=O)C(=O)OCc1ccccc1 (stereo not given)', 'HCC-2998 colon', '> 100 µM'),
  ('CC(C)(C)c1cc2c(c(C(C)(C)C)c1O)CC(=O)O2', 'HCC-2998 colon', '96.7 µM'),
  ('COc1ccc(/C=C2\C[C@H]3[C@@H]4CC=C5C[C@@H](OC(C)=O)CC[C@]5(C)[C@H]4CC[C@]3(C)\C2=N\O)cc1OC', 'HCC-2998 colon', '> 100 µM'),
  ('O=c1cc(-c2ccccc2)[nH]c2ccc(S)cc12', 'HCC-2998 colon', '51.9 µM'),
  ('CC(C)(C)OC(=O)N1CC(CCl)c2ccc(O)cc21 (stereo not given)', 'HCC-2998 colon', '2.02 µM'),
  ('CCOC(=O)c1nc2ccccc2n(CC)c1=O', 'HCC-2998 colon', '> 100 µM'),
  ('O=c1c2ccccc2[nH]c2c(O)ccc(O)c12', 'HCC-2998 colon', '> 100 µM'),
  ('O=C1C[C@H](COCc2ccccc2)NC(=O)C[C@H](COCc2ccccc2)NC(=O)C[C@H](COCc2ccccc2)N1', 'HCC-2998 colon', '> 100 µM'),
  ('Cc1cc(C(=O)/C=C/c2ccc[nH]2)ccc1-n1ccc(C(F)(F)F)n1', 'HCC-2998 colon', '> 100 µM'),
  ('C=C1c2ccccc2C(=O)c2c1c1c(C(=O)OC)c(OC(=O)OCc3ccc([N+](=O)[O-])cc3)ccc1n2Cc1ccccc1', 'HCC-2998 colon', '39 µM'),
  ('Cc1cc(C(=O)Nc2n[nH]c3ccccc23)n[nH]1', 'HCC-2998 colon', '> 100 µM'),
  ('c1csc(-c2nccc3c2[nH]c2ccccc23)c1', 'HCC-2998 colon', '39.6 µM'),
  ('CCc1c2cc(OC)c(OC)cc2cc2c3cc(OC)c(OC)cc3cc[n+]12 (tested in a mixture with another compound)', 'HCC-2998 colon', '52 µM'),
  ('Cc1c(O)c(OC2OC(CO)C(O)C(O)C2O)cc2c1CC[C@@H]1C2(C)C(=O)C[C@]2(C)[C@@H]([C@@](C)(O)C3CCC(C)(C)O3)[C@H](O)C[C@@]12C (stereo not given in full)', 'HCC-2998 colon', '> 100 µM'),
  ('O=C1CC[C@H](N2Cc3c(OCc4ccc(CN5CCOCC5)cc4)cccc3C2=O)C(=O)N1', 'HCC-2998 colon', '> 100 µM'),
  ('O=C(O)C1CC=CCC1C(=O)Nc1cccc(O)c1 (stereo not given)', 'HCC-2998 colon', '> 100 µM'),
  ('NC(=O)CN1CC(C2=C(O)CN(CC(N)=O)C2=O)=CC1=O', 'HCC-2998 colon', '> 100 µM'),
  ('CN(C)C1(N(C)C)Oc2c(c(=O)n(C)c(=O)n2C)C(c2ccc(C(F)(F)F)cc2)C1(F)F (stereo not given)', 'HCC-2998 colon', '> 100 µM'),
  ('NCCCOc1cc2ccccc2cc1C(=O)Nc1ccc(Cl)cc1OC(=O)c1cc2ccccc2cc1OCCCN', 'HCC-2998 colon', '2.82 µM'),
  ('c1ccc2cc3c(cc2c1)Nc1c2ccccc2nc2cccc-3c12', 'HCC-2998 colon', '3.1 µM'),
  ('O=C(CC(O)(C(F)(F)F)C(F)(F)Cl)CC(O)(C(F)(F)F)C(F)(F)Cl (stereo not given)', 'HCC-2998 colon', '> 10 µM'),
  ('CCC(=O)NI1OC(=O)c2ccccc21', 'HCC-2998 colon', '> 100 µM'),
  ('CC(=O)N1c2ccccc2C2=NN(C)C(=N)SC21 (stereo not given)', 'HCC-2998 colon', '> 100 µM'),
  ('CCOC(=O)C(=O)Nc1cc(Cl)c(Cl)cc1Cl', 'HCC-2998 colon', '> 100 µM'),
  ('c1cc(-c2ccc(-c3nc4ccc(C5=NCCN5)cc4s3)s2)ccc1C1=NCCN1', 'HCC-2998 colon', '0.162 µM'),
  ('[N-]=[N+]=NC1(c2ccccc2)C(=O)C(Cl)=C(c2ccccc2)N(c2ccccc2)C1=O (stereo not given)', 'HCC-2998 colon', '> 100 µM');
